Data credit: patent US20240425523A1

- SYSTEM UNDER TEST: p-EGFR Del19/C797S (H1975-clone #23 cells) (Homo sapiens, UniProt P00533)
- Sequence (P00533 with tags, fused parts or gaps DEL746-750/C797S, form open): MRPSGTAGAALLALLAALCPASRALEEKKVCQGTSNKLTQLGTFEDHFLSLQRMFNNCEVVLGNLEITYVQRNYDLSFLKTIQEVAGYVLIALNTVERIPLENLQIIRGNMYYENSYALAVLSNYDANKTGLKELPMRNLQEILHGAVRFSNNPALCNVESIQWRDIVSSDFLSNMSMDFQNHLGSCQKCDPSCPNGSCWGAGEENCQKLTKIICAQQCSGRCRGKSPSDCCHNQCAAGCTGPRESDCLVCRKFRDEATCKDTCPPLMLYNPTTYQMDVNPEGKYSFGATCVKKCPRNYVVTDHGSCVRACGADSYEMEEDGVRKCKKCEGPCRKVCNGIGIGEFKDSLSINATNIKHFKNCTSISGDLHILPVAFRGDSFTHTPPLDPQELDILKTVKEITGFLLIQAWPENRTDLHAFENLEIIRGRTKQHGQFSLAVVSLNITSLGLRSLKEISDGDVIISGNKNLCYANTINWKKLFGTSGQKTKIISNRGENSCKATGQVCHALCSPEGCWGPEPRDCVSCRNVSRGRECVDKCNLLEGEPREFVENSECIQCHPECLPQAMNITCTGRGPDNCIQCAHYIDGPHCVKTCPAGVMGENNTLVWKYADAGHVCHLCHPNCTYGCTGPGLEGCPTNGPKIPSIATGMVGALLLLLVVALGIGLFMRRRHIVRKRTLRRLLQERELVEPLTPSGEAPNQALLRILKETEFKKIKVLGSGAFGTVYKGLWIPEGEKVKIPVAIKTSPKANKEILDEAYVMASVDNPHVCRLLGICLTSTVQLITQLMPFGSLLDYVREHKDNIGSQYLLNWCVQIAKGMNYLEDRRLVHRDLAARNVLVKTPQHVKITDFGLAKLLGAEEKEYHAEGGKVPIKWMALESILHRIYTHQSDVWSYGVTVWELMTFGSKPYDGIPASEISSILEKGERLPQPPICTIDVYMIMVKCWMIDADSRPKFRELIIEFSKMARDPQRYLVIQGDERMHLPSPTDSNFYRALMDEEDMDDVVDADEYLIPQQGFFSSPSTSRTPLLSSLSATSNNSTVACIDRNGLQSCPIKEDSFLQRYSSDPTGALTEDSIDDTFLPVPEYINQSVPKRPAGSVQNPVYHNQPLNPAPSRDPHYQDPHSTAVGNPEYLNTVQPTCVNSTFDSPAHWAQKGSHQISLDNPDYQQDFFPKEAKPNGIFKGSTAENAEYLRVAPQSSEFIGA
- PROCEDURE DETAILS: Cell p-EGFR inhibition assay, HTRF, H1975-clone#23 (DEL19/C797S) cells
- CONDITION: 16 h treatment, pEGFR inhibition
- Experimental: The EGFR over-expressed cells then underwent knockout, in which the EGFR targeting sgRNA was designed to only target the endogenous EGFR copies and preserve the exogenous EGFR copies. Followed by the knockout, the edited H1975 cells were seeded in 96 well plates at the concentration of 1 cell/well, cultured for about 2 weeks to allow single clones formation. […] High control=Cell group with added DMSO and without compound, indicating microplate readings without p-EGFR inhibited. […]
Please use True for IC50 under 800 pM and False for everything else, ties included.

Answered examples (3):
{"COMPOUND": "Cc1cc2cc(n1)-c1c(C)nn(C)c1OC[C@H]1CCC(C1)CN1/C(=N/C2=O)Nc2ccc(N3CCN([C@@H]4CCN(c5cc(F)c(C6CCC(=O)NC6=O)nc5C)C[C@@H]4F)CC3)cc21 (some centres unmarked)", "SYSTEM UNDER TEST": "p-EGFR Del19/C797S (H1975-clone #23 cells) (Homo sapiens, UniProt P00533)", "CLASS NAME": "False"}
{"COMPOUND": "Cc1cc2cc(n1)-c1cnn(C)c1OC[C@H]1CCC(C1)CN1/C(=N/C2=O)Nc2ccc(N3CCN([C@H]4CCN(c5ccc(C6CCC(=O)NC6=O)nc5C)C[C@@H]4F)CC3)cc21 (some centres unmarked)", "SYSTEM UNDER TEST": "p-EGFR Del19/C797S (H1975-clone #23 cells) (Homo sapiens, UniProt P00533)", "CLASS NAME": "True"}
{"COMPOUND": "Cc1cc2cc(n1)-c1c(C)nn(C)c1OC[C@H]1CC[C@H](C1)CN1/C(=N/C2=O)Nc2ccc(N3C[C@@H](C)N(C4CCN(c5cc(F)c([C@H]6CCC(=O)NC6=O)c(F)c5)CC4)C[C@H]3C)cc21", "SYSTEM UNDER TEST": "p-EGFR Del19/C797S (H1975-clone #23 cells) (Homo sapiens, UniProt P00533)", "CLASS NAME": "False"}

Please find the next compound below.
Consider "Cc1cc2cc(n1)-c1cnn(C)c1OC[C@H]1CCC(C1)CN1/C(=N/C2=O)Nc2ccc(N3CCC(CN4CC(Nc5cc(F)c([C@H]6CCC(=O)NC6=O)c(F)c5)C4)CC3)cc21" . Does its IC50 lie strictly below 800 pM?
True

###

- SYSTEM UNDER TEST: EGFR L858R (BaF3-L858R cells) (Homo sapiens, UniProt P00533, L858R)
- Construct: host or cells: BaF3
- Sequence (P00533 25-1210 L858R): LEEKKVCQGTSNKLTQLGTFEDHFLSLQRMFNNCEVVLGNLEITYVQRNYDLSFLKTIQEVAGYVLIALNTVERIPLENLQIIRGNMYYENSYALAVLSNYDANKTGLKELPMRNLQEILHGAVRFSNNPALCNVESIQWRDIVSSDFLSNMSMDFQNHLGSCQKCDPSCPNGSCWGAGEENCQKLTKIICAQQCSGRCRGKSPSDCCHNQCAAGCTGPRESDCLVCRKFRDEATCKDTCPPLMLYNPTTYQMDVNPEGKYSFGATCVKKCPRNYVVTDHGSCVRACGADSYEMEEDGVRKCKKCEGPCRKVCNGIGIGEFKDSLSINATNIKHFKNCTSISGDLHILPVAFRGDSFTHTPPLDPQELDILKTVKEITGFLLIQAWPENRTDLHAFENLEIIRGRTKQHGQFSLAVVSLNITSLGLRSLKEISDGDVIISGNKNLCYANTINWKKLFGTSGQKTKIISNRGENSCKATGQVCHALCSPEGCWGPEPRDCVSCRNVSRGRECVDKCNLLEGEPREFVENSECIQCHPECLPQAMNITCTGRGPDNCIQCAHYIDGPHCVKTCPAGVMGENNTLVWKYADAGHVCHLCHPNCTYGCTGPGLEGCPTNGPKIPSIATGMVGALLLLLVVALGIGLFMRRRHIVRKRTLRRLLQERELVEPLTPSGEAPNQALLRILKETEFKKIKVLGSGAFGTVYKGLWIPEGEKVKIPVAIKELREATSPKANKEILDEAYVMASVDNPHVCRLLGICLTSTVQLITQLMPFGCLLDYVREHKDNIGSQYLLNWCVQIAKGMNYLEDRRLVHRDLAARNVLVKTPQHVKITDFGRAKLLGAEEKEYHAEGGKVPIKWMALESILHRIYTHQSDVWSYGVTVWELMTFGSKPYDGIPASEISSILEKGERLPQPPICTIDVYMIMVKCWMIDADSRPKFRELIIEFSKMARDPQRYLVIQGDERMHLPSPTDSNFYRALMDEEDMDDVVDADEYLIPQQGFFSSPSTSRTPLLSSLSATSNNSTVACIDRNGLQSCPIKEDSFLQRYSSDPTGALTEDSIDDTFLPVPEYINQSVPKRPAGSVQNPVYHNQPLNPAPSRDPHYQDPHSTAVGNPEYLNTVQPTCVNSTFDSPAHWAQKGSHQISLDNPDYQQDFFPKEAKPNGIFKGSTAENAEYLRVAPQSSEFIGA
- PROCEDURE DETAILS: Cell degradation of EGFR, HTRF assay, BaF3-L858R cells
- Format: cell-based
- CONDITION: 16 h treatment, EGFR degradation
Task for the reader: assign each of the following molecules its reported log10(DC50).
All values: base-10 log of DC50 in nM.

The cases that follow already have their log10(DC50) on record.
{"MOLECULE": "Cc1cc2cc(n1)-c1cnn(C)c1OC[C@H]1CC[C@H](C1)CN1/C(=N/C2=O)Nc2ccc(N3CCN(CCc4c(C)cc(C5CCC(=O)NC5=O)nc4C)CC3)cc21 (some centres unmarked)", "log10(DC50)": -0.20}
{"MOLECULE": "CCc1nn(C)c2c1-c1cc(cc(C)n1)C(=O)/N=C1\\Nc3ccc(N4CCN(C5CCN(c6cc(F)c([C@H]7CCC(=O)NC7=O)c(F)c6)CC5)[C@@H](COC)C4)cc3N1C[C@@H]1CC[C@H](CO2)C1", "log10(DC50)": 0.61}
{"MOLECULE": "Cc1cc2cc(n1)-c1cnn(C)c1OC[C@H]1CC[C@H](C1)CN1/C(=N/C2=O)Nc2ccc(N3CCN([C@H]4CCN(c5ccc(C6CCC(=O)NC6=O)nc5C)C[C@H]4F)CC3)cc21 (some centres unmarked)", "log10(DC50)": 0.88}
{"MOLECULE": "Cc1cc2cc(n1)-c1c(C)nn(C)c1OC[C@H]1CC[C@H](C1)CN1/C(=N/C2=O)Nc2ccc(N3CCN(CCC4CCN(c5cc(F)c([C@H]6CCC(=O)NC6=O)c(F)c5)CC4)CC3)cc21", "log10(DC50)": 0.72}
{"MOLECULE": "Cc1cc2cc(n1)-c1cnn(C)c1OC[C@H]1CCC(C1)CN1/C(=N/C2=O)Nc2ccc(N3CCN(C4CCN(c5ccc(NC6CCC(=O)NC6=O)cc5Cl)CC4)CC3)cc21 (some centres unmarked)", "log10(DC50)": 0.53}

I have 8 molecules here; please give me log10(DC50) for each one.
1. Cc1cc2cc(n1)-c1c(C)nn(C)c1OC[C@H]1CC[C@H](C1)CN1/C(=N/C2=O)Nc2ccc(N3CCN(C[C@@H]4CCN(c5cc(F)c([C@H]6CCC(=O)NC6=O)c(F)c5)C4)CC3)cc21
2. COC[C@H]1CN(c2ccc3c(c2)N2C[C@@H]4CC[C@H](COc5c(cnn5C)-c5cc(cc(C)n5)C(=O)/N=C/2N3)C4)CCN1C1CCN(c2ccc(C3CCC(=O)NC3=O)nc2C)CC1 (some centres unmarked)
3. COC[C@@H]1CN(c2ccc3c(c2)N2C[C@@H]4CC[C@H](COc5c(c(C)nn5C)-c5cc(cc(C)n5)C(=O)/N=C/2N3)C4)CCN1C1CCN(c2cc(F)c(C3CCC(=O)NC3=O)nc2C)CC1 (some centres unmarked)
4. Cc1cc2cc(n1)-c1cnn(C)c1OC[C@H]1CC[C@H](C1)CN1/C(=N/C2=O)Nc2ccc(N3CCN([C@@H]4CCN(c5cnc(C6CCC(=O)NC6=O)cc5C)C[C@@H]4F)CC3)cc21 (some centres unmarked)
5. Cc1cc2cc(n1)-c1cnn(C)c1OC[C@H]1CCC(C1)CN1/C(=N/C2=O)Nc2ccc(N3CC4(CCN(C5CN(c6cc(F)c([C@H]7CCC(=O)NC7=O)c(F)c6)C5)CC4)C3)cc21
6. Cc1cc2cc(n1)-c1c(C)nn(C)c1OC[C@H]1CC[C@H](C1)CN1/C(=N/C2=O)Nc2ccc(N3[C@@H](C)CN(C4CCN(c5cc(F)c([C@H]6CCC(=O)NC6=O)c(F)c5)CC4)C[C@@H]3C)cc21
7. Cc1cc2cc(n1)-c1cnn(C)c1OC[C@H]1CCC(C1)CN1/C(=N/C2=O)Nc2ccc(N3CCN(C4CCN(c5c(F)cc(OC6CCC(=O)NC6=O)cc5F)CC4)CC3)cc21 (some centres unmarked)
8. Cc1cc2cc(n1)-c1cnn(C)c1OC[C@H]1CCC(C1)CN1/C(=N/C2=O)Nc2ccc(N3CC4(C3)CN(C3CCN(c5cc(F)c([C@H]6CCC(=O)NC6=O)c(F)c5)CC3)C4)cc21

1: 0.70; 2: -0.03; 3: 0.24; 4: 0.48; 5: 0.31; 6: 0.88; 7: 0.50; 8: 0.05

For the molecule "CC[C@H]1CN(c2ccc3c(c2)N2C[C@@H]4CC[C@H](COc5c(c(C)nn5C)-c5cc(cc(C)n5)C(=O)/N=C/2N3)C4)CCN1C1CCN(c2cc(F)c([C@H]3CCC(=O)NC3=O)c(F)c2)CC1" , what log10(DC50) is on record?
0.64

###

- SYSTEM UNDER TEST: p-EGFR Del19/C797S (H1975-clone #23 cells) (Homo sapiens)
- PROCEDURE DETAILS: Cell p-EGFR inhibition assay, HTRF, H1975-clone#23 (DEL19/C797S) cells
- CONDITION: 16 h treatment, pEGFR inhibition
- Experimental: The EGFR over-expressed cells then underwent knockout, in which the EGFR targeting sgRNA was designed to only target the endogenous EGFR copies and preserve the exogenous EGFR copies. Followed by the knockout, the edited H1975 cells were seeded in 96 well plates at the concentration of 1 cell/well, cultured for about 2 weeks to allow single clones formation. […] High control=Cell group with added DMSO and without compound, indicating microplate readings without p-EGFR inhibited. […]
QUANTITY: IC50
Give the value; after it, write the unit.

Past entries and their recorded results:
{"COMPOUND": "Cc1cc2cc(n1)-c1c(C)nn(C)c1OC[C@H]1CC[C@H](C1)CN1/C(=N/C2=O)Nc2ccc(N3C[C@H](C)N(C4CCN(c5cc(F)c([C@H]6CCC(=O)NC6=O)c(F)c5)CC4)C[C@@H]3C)cc21", "SYSTEM UNDER TEST": "p-EGFR Del19/C797S (H1975-clone #23 cells) (Homo sapiens)", "IC50": "3.38 nM"}
{"COMPOUND": "Cc1cc2cc(n1)-c1c(C)nn(C)c1OC[C@H]1CC[C@H](C1)CN1/C(=N/C2=O)Nc2ccc(N3CCN([C@H]4CCN(c5cnc(C6CCC(=O)NC6=O)cc5C)CC4(F)F)CC3)cc21 (stereo partly shown)", "SYSTEM UNDER TEST": "p-EGFR Del19/C797S (H1975-clone #23 cells) (Homo sapiens)", "IC50": "1 nM"}
{"COMPOUND": "Cc1cc2cc(n1)-c1cnn(C)c1OC[C@H]1CCC(C1)CN1/C(=N/C2=O)Nc2ccc(N3CCN([C@@H]4CCN(c5ccc(C6CCC(=O)NC6=O)nc5C)CC4(F)F)CC3)cc21 (stereo partly shown)", "SYSTEM UNDER TEST": "p-EGFR Del19/C797S (H1975-clone #23 cells) (Homo sapiens)", "IC50": "0.7 nM"}
{"COMPOUND": "Cc1cc2cc(n1)-c1cnn(C)c1OC[C@H]1CCC(C1)CN1/C(=N/C2=O)Nc2ccc(N3CCN(C4CCN(c5ccc(OC6CCC(=O)NC6=O)cc5F)CC4)CC3)cc21 (stereo partly shown)", "SYSTEM UNDER TEST": "p-EGFR Del19/C797S (H1975-clone #23 cells) (Homo sapiens)", "IC50": "3 nM"}

Each compound below has a recorded value; state its IC50.
1. Cc1cc2cc(n1)-c1c(C)nn(C)c1OC[C@H]1CC[C@H](C1)CN1/C(=N/C2=O)Nc2ccc(N3CCN(CC4CCN(c5cc(F)c([C@H]6CCC(=O)NC6=O)c(F)c5)CC4)CC3)cc21
2. COC[C@@H]1CN(c2ccc3c(c2)N2CC4CC[C@H](COc5c(c(C(F)(F)F)nn5C)-c5cc(cc(C)n5)C(=O)/N=C/2N3)C4)CCN1C1CCN(c2cc(F)c([C@H]3CCC(=O)NC3=O)c(F)c2)CC1

2.38 nM
9.5 nM
